# TARGET OR TEST SYSTEM: human serum albumin (human) (UniProt P02768)
# Sequence (P02768 25-609 limits assumed): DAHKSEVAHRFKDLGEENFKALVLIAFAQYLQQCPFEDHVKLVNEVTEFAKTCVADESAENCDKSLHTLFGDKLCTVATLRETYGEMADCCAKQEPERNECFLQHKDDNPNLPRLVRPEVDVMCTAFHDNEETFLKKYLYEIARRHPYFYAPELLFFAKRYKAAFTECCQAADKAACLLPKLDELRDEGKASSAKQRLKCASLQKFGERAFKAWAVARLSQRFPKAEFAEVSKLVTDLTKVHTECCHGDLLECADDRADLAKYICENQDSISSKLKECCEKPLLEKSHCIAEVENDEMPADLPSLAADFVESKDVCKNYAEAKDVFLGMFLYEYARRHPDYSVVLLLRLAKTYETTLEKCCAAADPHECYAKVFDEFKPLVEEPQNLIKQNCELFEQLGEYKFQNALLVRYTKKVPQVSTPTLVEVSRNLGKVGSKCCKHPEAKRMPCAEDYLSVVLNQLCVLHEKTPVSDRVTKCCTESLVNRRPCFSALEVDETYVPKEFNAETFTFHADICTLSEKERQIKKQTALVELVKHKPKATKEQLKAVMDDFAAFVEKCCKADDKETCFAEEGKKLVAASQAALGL
# PROTOCOL SUMMARY: solution ELISA screen (luminescence)
MEASURE: RLU (RLU)

Known results for binders:
{"BINDER": "SEQ ID NO 231 (designed binder, not shown: small tags and cut ends) MLPAPKNLVVSRVTEDSARLSWTAPDAAFDSFFIGYLEPQPPGEAIHLYVPGSERSYDLTGLKPGTEYNVTIQGVKGGFPSDPLDAVFTT", "ASSAY RESULT": 20600}
{"BINDER": "SEQ ID NO 234 (designed binder, not shown: small tags and cut ends) MLPAPKNLVVSRVTEDSARLSWTAPDAAFDSFYIAYAEPRPDGEAIVLVVPGSERSYDLTGLKPGTEYSVLIHGVKGGLLSSPLSAIFTT", "ASSAY RESULT": 20800}

1: SEQ ID NO 237 (designed binder, not shown: small tags and cut ends) MLPAPKNLVVSRVTEDSARLSWTAPDAAFDSFYIAYAEPRPDGEAIVLAVPGSERSYDLTGLKPGTEYSVLIHGVKGGLLSSPLYASFTT
2: SEQ ID NO 218 (designed binder, not shown: small tags and cut ends) MLPAPKNLVVSRVTEDSARLSWTAPDAAFDSFYIAYAEPRPDGEAIHLVVPGSERSYDLTGLKPGTEYSVLIHGVKGGLLSSPLSAIFTT
Task item: Could you kindly indicate whether 1 or 2 has the higher RLU value? Please indicate the selected item by its label.
Reply: 1
